Each entry below carries its reported pIC50.
target-system: human α2C receptor (Homo sapiens)
Construct: expressed in transfected cells; host or cells: CHO cells, also recombinantly expressing chimeric G protein Gαqi3 and mitochondrial obelin (mtOb)
procedure-text: Antagonism against the adrenoreceptor α2C (luminescence, recombinant CHO cell line)
Assay type: cell-based
particulars: antagonism against adrenoreceptor α2C; noradrenaline 20 nM; tested up to 10 μM; read-out: IC50
pIC50: −log10 of the molar value. Counter-ions that a name gives are not always drawn.
measure-name: pIC50

CC1CCCN(C2CCN(C(=O)c3ccc(C(=O)NC(C)(C)c4ccccc4Cl)cc3)CC2)C1 (stereo not drawn) [Example 78, trifluoroacetic acid salt]: 7.62
Cc1n[nH]c(C2CCCN(C3CCN(C(=O)c4ccc(C(C)(C)O)cc4)CC3)C2)n1 (stereo not drawn): 6.89
CC1CCCN(C2CCN(C(=O)c3ccc(C(C)(C)O)cc3)CC2)C1 (single isomer, unassigned) [Example 8]: 6.79
CC(C)(O)c1ccc(C(=O)N2CCC(N3CCCC(OCC4CCC4)C3)CC2)cc1 (stereo not drawn): 8.00
O=C(c1ccc(C2(O)COC2)cc1)N1CCC(N2CCCC(OCC3CC3)C2)CC1 (stereo not drawn): 7.41
COC(=O)c1ccc(C(=O)N2CCC(N3CCCC(C)C3)CC2)cc1 (stereo not drawn): 6.03
C[C@@H]1CCCN(C2CCN(C(=O)c3ccc(C(=O)NCc4c(F)cccc4F)cc3)CC2)C1 [Example 88, trifluoroacetic acid salt]: 7.96
Cc1n[nH]c(C2CCCN(C3CCN(C(=O)c4ccc(C(C)(C)C)cc4)CC3)C2)n1 (stereo not drawn) [Example 21, trifluoroacetic acid salt]: 7.31
CC(C)(O)c1ccc(C(=O)N2CCC(N3CCCC(COC4CCC4)C3)CC2)cc1 (single isomer, unassigned; enantiomer 2) [Example 117]: 8.30
CCOC(=O)C1CCCN(C2CCN(C(=O)c3ccc(C(C)(C)OC)cc3)CC2)C1 (stereo not drawn): 7.59
CCOC(=O)C1(c2ccc(C(=O)N3CCC(N4CCCC(C)C4)CC3)cc2)CC1 (stereo not drawn) [Example 30, trifluoroacetic acid salt]: 6.78
CCC1CCCN(C2CCN(C(=O)c3ccc(C(C)(C)O)cc3)CC2)C1 (stereo not drawn) [Example 114]: 7.14
CC1CCCN(C2CCN(C(=O)c3ccc(CC4(C)COC4)cc3)CC2)C1 (stereo not drawn): 6.87
CC(C)(O)c1ccc(C(=O)N2CCC(N3CCCC(C4CC4)C3)CC2)cc1 (stereo not drawn): 7.92
CCOC(=O)c1ccc(C(=O)N2CCC(N3CCCC(C)C3)CC2)cc1 (stereo not drawn) [Example 32, trifluoroacetic acid salt]: 6.65

----------
target-system: human α2C receptor (Homo sapiens, UniProt P18825)
Construct: expressed in transfected cells; host or cells: CHO cells, also recombinantly expressing chimeric G protein Gαqi3 and mitochondrial obelin (mtOb)
Sequence (P18825 whole entry): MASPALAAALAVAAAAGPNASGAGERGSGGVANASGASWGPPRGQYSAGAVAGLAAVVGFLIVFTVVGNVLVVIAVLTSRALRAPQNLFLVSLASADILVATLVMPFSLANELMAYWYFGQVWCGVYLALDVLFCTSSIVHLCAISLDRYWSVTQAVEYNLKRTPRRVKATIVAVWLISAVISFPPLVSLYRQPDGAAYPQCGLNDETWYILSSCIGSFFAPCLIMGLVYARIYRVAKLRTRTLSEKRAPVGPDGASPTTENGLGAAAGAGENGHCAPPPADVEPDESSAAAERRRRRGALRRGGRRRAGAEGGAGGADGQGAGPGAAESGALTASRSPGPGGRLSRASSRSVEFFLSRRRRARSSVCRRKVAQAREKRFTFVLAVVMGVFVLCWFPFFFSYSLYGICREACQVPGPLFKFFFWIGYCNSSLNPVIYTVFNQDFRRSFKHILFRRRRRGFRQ
procedure-text: Antagonism against the adrenoreceptor α2C (luminescence, recombinant CHO cell line)
Format: cell-based
particulars: antagonism against adrenoreceptor α2C; noradrenaline 20 nM; tested up to 10 μM; read-out: IC50
pIC50: −log10 of the molar value. Structures can show the parent of a compound that is named as a salt.
measure-name: pIC50

Cc1cc(C)n(Cc2ccc(C(=O)N3CCC(N4CCCC(C)C4)CC3)cc2)n1 (stereo not shown): 6.78
CC1CCCN(C2CCN(C(=O)c3ccc(C(=O)NCc4ccncc4)cc3)CC2)C1 (stereo not shown): 7.09
C[C@@H]1CCCN(C2CCN(C(=O)c3ccc(C(=O)NC(c4ccc(C(F)(F)F)cc4)C(F)(F)F)cc3)CC2)C1 (stereo partly shown) [Example 85, trifluoroacetic acid salt]: 6.70
CC(C)(O)c1ccc(C(=O)N2CCC(N3CCCC(c4ncn[nH]4)C3)CC2)cc1 (stereo not shown): 6.41

meta.source: patent US20160318866A1
